- METHOD_DESCRIPTION: Biodistribution of 18F-labelled tracers in rats
- Format: in vivo
- DETAILS: rats; 60 min; corrected for decay of 18F
Reported Biodistribution: Skin is given for each of the following compounds.
Your answer should be a plain number; it is taken to be in % ID/g.

Recorded Biodistribution: Skin, per entry:
So, CCN(CC)C(=O)Cc1c(-c2ccc(C(C)(C)C)cc2)nc2ccc([18F])nn12 [PBR132*] ? Its Biodistribution: Skin was 0.64

Lookup result for CCN(CC)C(=O)Cc1c(-c2ccc(OCCCF)cc2)nn2c(C)cc(C)nc12 [PBR146*] ; measured Biodistribution: Skin: 0.67

In plain terms, CCN(CC)C(=O)Cc1c(-c2ccc(OCCF)cc2)nc2ccc(Cl)cn12 [PBR102] has a documented Biodistribution: Skin of 0.37

Further cases:
// sample CCN(CC)C(=O)Cc1c(-c2ccc(OCCCF)cc2)nc2ccc(Cl)cn12 [PBR111] , its Biodistribution: Skin was 0.46

###

- METHOD_DESCRIPTION: Biodistribution of 18F-labelled tracers in rats
- Format: in vivo
- DETAILS: rats; 4 hours; corrected for decay of 18F
- Method: [^18F]Fluoride, in the form of H^18F, was produced by the ^18O(p,n)^18F nuclear reaction by bombardment of ^18O-enriched water target. […] The biodistribution of PBR132* was undertaken in SD rats and analysis up to 4 h p.i. in the brain and peripheral tissues was performed. The specificity and selectivity of the tracer were assessed by pre-treatment with PBR and Central benzodiazepine receptor (CBR) specific ligands (1 mg/kg) 5 min prior to injection of PBR132*. […]
Property: Biodistribution: Skin; scope: individual compounds

Examples from the recorded data:
Briefly, Biodistribution: Skin measured for CCN(CC)C(=O)Cc1c(-c2ccc(C(C)(C)C)cc2)nc2ccc([18F])nn12 : 0.67 ± 0.17 % ID/g

Field Biodistribution: Skin (entry CCN(CC)C(=O)Cc1c(-c2ccc(OCCCF)cc2)nn2c(C)cc(C)nc12 ) reads 0.71 ± 0.07 % ID/g

Given item CCN(CC)C(=O)Cc1c(-c2ccc(OCCF)cc2)nc2ccc(Cl)cn12 , the value recorded as its Biodistribution: Skin is 0.49 ± 0.03 % ID/g

Let us examine a further case.
Biodistribution: Skin for CCN(CC)C(=O)Cc1c(-c2ccc(OCCCF)cc2)nc2ccc(Cl)cn12 is 0.63 ± 0.04 % ID/g

###

Let's look at some compounds and their measured Biodistribution: Heart.
- METHOD_DESCRIPTION: Biodistribution of 18F-labelled tracers in rats
- Type: in vivo
- DETAILS: rats; 30 min; corrected for decay of 18F
State the answer as a number, implicitly in % ID/g.

Notebook: CCN(CC)C(=O)Cc1c(-c2ccc(C(C)(C)C)cc2)nc2ccc([18F])nn12 , Biodistribution: Heart read as 8.34

Item: CCN(CC)C(=O)Cc1c(-c2ccc(OCCF)cc2)nc2ccc(Cl)cn12 | Biodistribution: Heart: 4.44

Looking up CCN(CC)C(=O)Cc1c(-c2ccc(OCCCF)cc2)nc2ccc(Cl)cn12 , I found its Biodistribution: Heart recorded as 6.63

Moving on to the next compound.
GET /value?item= CCN(CC)C(=O)Cc1c(-c2ccc(OCCCF)cc2)nn2c(C)cc(C)nc12 &field=Biodistribution: Heart returns 9.05

All figures here come from patent US20100209345A1.
